Listed below: melting point values for each entry.
resultType: melting point

{"columns": ["compound", "valueReported"],
 "data": [
  ["Cn1cncc1C(O)(c1ccc(Cl)cc1)c1ccc2c(c1)c(-c1cccc(Cl)c1)nc1nnnn12 (stereo not given)", "139 °C"],
  ["CCOC(=O)C1=C(C)NC2=C(C(=O)CCC2)C1c1nccn1C (stereo not given)", "271 to 272 °C"],
  ["COC(=N)N1CCC(c2n[nH]c3ccccc23)CC1", "153 to 155 °C"],
  ["CC(C)N1C(=O)NC(c2ccc3c(c2)OCO3)c2cc3c(cc21)OCCO3 (stereo not given)", "197 to 200 °C"],
  ["O=C(c1ccc(Cl)cc1)C(O)(Cn1cncn1)C(Cl)(Cl)Cl (stereo not given)", "173 to 174 °C"]
]}

* * *

{"columns": ["compound", "melting point"],
 "data": [
  ["Nn1c(C(F)(F)F)ccc(-c2ccc(Cl)cc2Cl)c1=O", "98 to 100 °C"],
  ["CNCC1Oc2cc(F)cc(-c3ccccc3Cl)c2O1 (stereo not drawn)", "132 to 134 °C"],
  ["CCOC(=O)c1cnn2c1c(SC)nc1ccccc12", "97 to 98 °C"],
  ["CCOC(=O)CN(Cc1cc(-n2cc(C)nc2C)ccc1[N+](=O)[O-])C(=O)C(F)(F)F", "172 to 176 °C"],
  ["O=c1c2ccc(Cl)cc2n(Cc2ccccc2)n2c(Cl)ccc12", "134 to 136 °C"],
  ["COc1cc2c(c(OC(C)=O)c1)C1CCC3(C)C(OC(C)=O)CCC3C1CC2 (stereo not drawn)", "120 to 121 °C"],
  ["Cc1cccc2c1nc(C(C)C)n2Cc1c(F)cccc1F", "151 to 153 °C"],
  ["Cc1cn(C[C@H]2CC[C@@H](CO)O2)c(=O)[nH]c1=O", "133 to 135 °C"],
  ["CCOC(=O)C1=C(COCCNC(=O)c2cccnc2)NC(C)=C(C(=O)OC)C1c1ccccc1Cl (stereo not drawn)", "81 to 84 °C"],
  ["CCCOc1ccc(C)cc1C(N)=O", "112 to 115 °C"],
  ["C=C(Cl)C[C@H](CC(=O)O)C(=O)N[C@@H](CC1CCCCC1)[C@@H](O)[C@@H](O)CC(C)C", "193 to 196 °C"],
  ["CCOC(=O)C1=C(CC)Nc2n[nH]cc2C1c1ccccc1OC (stereo not drawn)", "169 °C"],
  ["CC(C)(C)c1nc(C(N)=S)ncc1O", "169 to 171 °C"],
  ["O=C1O[C@@H](CNC(=S)C(F)F)CN1c1ccc(C2CCS(=O)CC2)c(F)c1 (stereo partly drawn)", "192 to 194 °C"],
  ["CCCOC1C=CC(=O)N1S(=O)(=O)c1ccccc1 (stereo not drawn)", "56 to 58 °C"],
  ["Cc1cc2c(cc1C)C(=O)CCC2", "47 to 48 °C"],
  ["CC(C)(C)OC(=O)NCCn1cnc2cnc3ccccc3c21", "154 to 155 °C"],
  ["CCCNC(=Nc1ccccc1N1CCOCC1)NCCC", "212 to 214 °C"],
  ["O=C1OCC2=C1C(c1ccccc1[N+](=O)[O-])C1=C(COC1=O)N2", "273 to 274 °C"],
  ["CC(COc1c(-c2ccccc2)c(=O)oc2c(Cl)cccc12)CN1CCOCC1 (stereo not drawn)", "120 to 122 °C"],
  ["O=C(O)C1CSC(c2cccc(OCCO[N+](=O)[O-])c2)N1 (stereo not drawn)", "117 to 119 °C"],
  ["Brc1ccc2c(c1-c1c(Br)ccc3c1CCCC3)CCCC2", "146 to 147 °C"],
  ["CCCCCCCCCCCCN1CCN(CCCCCCNc2cc(OC)cc3c(C)ccnc23)CC1", "53 to 55 °C"],
  ["CCc1oc2ccccc2c1C(=O)c1cc(Br)c(OS(=O)(=O)c2ccc(C(=O)O)c(O)c2)c(Br)c1", "173 °C"],
  ["O=[N+]([O-])c1ccc(CCN2CCN(C3CCc4ccccc4C3O)CC2)cc1 (stereo not drawn)", "155 to 159 °C"],
  ["CC(C)Oc1ccc(-n2c(C(=O)NCCNC(=O)OC(C)(C)C)cc3cc(Oc4ccc(C(F)(F)F)cn4)ccc32)cc1", "188 to 190 °C"],
  ["COc1cccc(CN2Cc3cc(OC)c(OCc4ccccc4)cc3C(O)C2)c1 (stereo not drawn)", "115 to 116 °C"],
  ["O=C(O)c1ccc(OC(F)F)c2oc3ccc([N+](=O)[O-])cc3c12", "> 270 °C"],
  ["COCCOc1ccc(CCCOC(=O)NS(=O)(=O)c2ccc(Cl)cc2)c(Oc2ncc(C(F)(F)F)cc2Cl)c1", "147 to 150 °C"],
  ["Cc1oc2c(Br)cccc2c1C", "33 °C"],
  ["O=C(O)c1ccccc1-c1cc(-c2ccccc2)[nH]n1", "204 to 206 °C"],
  ["CCOC(=O)N1CCC(Nc2nc3ncnc(Cl)c3n2Cc2ccc(F)cc2)CC1", "127 °C"],
  ["Cc1nnc(-c2ccnc(NCc3ccccn3)c2)o1", "137 to 138 °C"]
]}

* * *

Measured melting point, listed per entry for reference.

{"columns": ["compound", "melting point"],
 "data": [
  ["CCCCCCC(=O)c1ccc2occc2c1", "64 to 67 °C"],
  ["COC1(c2cc(F)cc(Sc3ccc(C(C)=O)cc3)c2)CCOCC1", "141 °C"],
  ["Nc1ccccc1Oc1cccc2c1NC(=O)C2", "210 to 212 °C"],
  ["CCOc1c(NC(C)(C)CC)c(=O)c1=O", "78 to 80 °C"],
  ["Cn1cc(C2=C(c3c4n(c5ccccc35)CCC(CO)C4)C(=O)NC2=O)c2ccccc21 (stereo not given)", "262 to 263 °C"]
]}

* * *

{"columns": ["molecule", "melting point"],
 "data": [
  ["CCOC(=O)C(C)(C)Oc1ccc(OCCn2c(=O)sc3cc(C(=NO)c4ccccc4)ccc32)cc1", "60 to 62 °C"],
  ["Cc1c(-c2ccncc2)oc2c1C(=O)OC(C)C2 (configuration not stated)", "157 to 160 °C"],
  ["COc1cc2c(CSCCN3CC=C(c4ccccc4)CC3)c[nH]c2cc1C(=O)O", "168 to 171 °C"],
  ["O=C1CCC(c2cc3c(s2)CC(NS(=O)(=O)c2ccccc2)CC3)=NN1 (configuration not stated)", "230 to 232 °C"],
  ["O=c1nc2n(c(=O)n1CCBr)CCCC2", "64 to 66 °C"],
  ["Cc1nc(Cn2c(=O)sc3cc(F)c([N+](=O)[O-])cc32)no1", "192 to 193 °C"],
  ["COc1c2c(nc3ccccc13)CCNCC2", "112 °C"],
  ["CNN=C1CCC(C)n2c1ncc(C(=O)O)c2=O (configuration not stated)", "219 to 220 °C"],
  ["O=C1COC(CCCOC(=O)c2ccccc2)(c2ccc(Cl)c(Cl)c2)CN1 (configuration not stated)", "92 °C"],
  ["CCCCCCCCCCCCS(=O)(=O)CCOc1ccc(C/C=C(\\OC(=O)CC)C(F)(F)F)cc1", "60 to 63 °C"],
  ["CCCc1nc2cc3c(cc2[nH]1)NC(=O)C3(C)C(=O)OCC (configuration not stated)", "258 to 261 °C"],
  ["CSc1sc(-c2ccno2)c2c1C(=O)CC(C)(C)C2", "143 to 145 °C"],
  ["O=C(O)Cc1ccc(Oc2ccc(I)cc2)cc1", "148 to 150 °C"],
  ["CN(C)C(=O)c1ccc(NC=O)cc1S(N)(=O)=O", "192 to 193 °C"],
  ["O=c1oc2ccc(-c3ccc(F)cc3F)cc2c(=O)n1-c1cccc(C(F)(F)F)c1", "165 to 166 °C"],
  ["Cc1c(NC(=O)C(CSC(=O)C(C)C)Cc2ccccc2)cccc1C(=O)O (configuration not stated)", "178 to 183 °C"],
  ["CCOC(=O)c1cnc(-c2ccccc2)nc1Nc1ccccc1", "98 to 100 °C"]
]}

* * *

resultType: melting point

{"columns": ["compound", "valueReported"],
 "data": [
  ["Cc1c(C(=O)Nc2ccc(N3CCC(N4CCOCC4)CC3)c(C(F)(F)F)c2)cnn1-c1ccc(Cl)cc1", "193 to 194 °C"],
  ["CCOC(=O)c1ccc(-c2ccc(C=O)cc2)cc1", "57 to 59 °C"],
  ["CNC(=O)NC(NC(=O)C(Cl)(Cl)Cl)C(Cl)(Cl)Cl (stereo not drawn)", "209 to 210 °C"]
]}

* * *

Attribute: melting point

{"columns": ["molecularString", "melting point"],
 "data": [
  ["O=c1[nH]c2cc(Cl)cc(Cl)c2c(=O)n1-c1ccccc1", "314 to 319 °C"],
  ["Nc1cc(Cl)cc(Cl)c1C(=O)NCc1ccccc1", "90 to 96 °C"],
  ["Cc1cc(NC(=O)c2cccc(CCc3cc(Nc4ccccc4)n[nH]3)c2)ccc1C(C)C", "150 to 151 °C"]
]}
